// reported GI50 for each item listed
# System: ACHN
# experiment: NCI tumour cell line growth inhibition, 48 h
Calls of active or inactive are those of the source. Cut-off read from the data, not from the text of the source: active = GI50 up to about 1.1 µM and inactive = higher.

Completed entries (count: 5):
>  <compound>
O=C(CC1(O)C(=O)Nc2ccccc21)c1ccncc1 (stereo unspecified)

>  <study_system>
ACHN

>  <reading>
> 100 µM (inactive)

$$$$
>  <compound>
Clc1ccc(C2ON=C(c3ccccc3)N2C23CC4CC(CC(C4)C2)C3)cc1Cl (stereo unspecified)

>  <study_system>
ACHN

>  <reading>
> 10 µM (inactive)

$$$$
>  <compound>
O=C(c1cccc2ccccc12)N1CCC(C2CCN(C(=O)c3cccc4ccccc34)CC2)CC1

>  <study_system>
ACHN

>  <reading>
> 100 µM (inactive)

$$$$
>  <compound>
Cc1cc(C)nc(NS(=O)(=O)c2ccc(NC(=O)c3cccn4c(=O)c5ccccc5nc34)cc2)n1

>  <study_system>
ACHN

>  <reading>
> 100 µM (inactive)

$$$$
>  <compound>
O=C(O)CNS(=O)(=O)c1ccc(NC(=O)CI)cc1

>  <study_system>
ACHN

>  <reading>
52 µM (inactive)

$$$$

Answer with reported GI50 of COC(=O)c1c(C)c2c(c(C)c1O)OC(=O)c1c(C)cc(O)c(C=O)c1O2
> 100 µM (inactive)

Answer with reported GI50 of Cc1ccc(C(=O)N2CCN(C(=O)c3ccc(C)cc3)c3ccccc32)cc1
9.59 µM (inactive)

Answer with reported GI50 of Cc1cc(OCC(=O)O)c(Cl)cc1Cl
> 100 µM (inactive)

Answer with reported GI50 of COc1cc(OC)c(/C=N\Nc2nc3ccccc3c(=O)n2-c2ccccc2)c(OC)c1
18.1 µM (inactive)

Answer with reported GI50 of CN(CCNC(=O)c1n[nH]c2c1Cc1ccccc1-2)CCNC(=O)c1n[nH]c2c1Cc1ccccc1-2
17.1 µM (inactive)

Answer with reported GI50 of CCCC(Sc1nc(N)nc2nc[nH]c12)C(=O)O (stereo unspecified)
> 100 µM (inactive)
